- System under test: T1, mouse SEMA4A expressed on expi293 cells (UniProt ID Q62178) (mouse, UniProt Q62178 33-760)
- T1 construct: Transient transfection in expi293 cells
- T1 sequence: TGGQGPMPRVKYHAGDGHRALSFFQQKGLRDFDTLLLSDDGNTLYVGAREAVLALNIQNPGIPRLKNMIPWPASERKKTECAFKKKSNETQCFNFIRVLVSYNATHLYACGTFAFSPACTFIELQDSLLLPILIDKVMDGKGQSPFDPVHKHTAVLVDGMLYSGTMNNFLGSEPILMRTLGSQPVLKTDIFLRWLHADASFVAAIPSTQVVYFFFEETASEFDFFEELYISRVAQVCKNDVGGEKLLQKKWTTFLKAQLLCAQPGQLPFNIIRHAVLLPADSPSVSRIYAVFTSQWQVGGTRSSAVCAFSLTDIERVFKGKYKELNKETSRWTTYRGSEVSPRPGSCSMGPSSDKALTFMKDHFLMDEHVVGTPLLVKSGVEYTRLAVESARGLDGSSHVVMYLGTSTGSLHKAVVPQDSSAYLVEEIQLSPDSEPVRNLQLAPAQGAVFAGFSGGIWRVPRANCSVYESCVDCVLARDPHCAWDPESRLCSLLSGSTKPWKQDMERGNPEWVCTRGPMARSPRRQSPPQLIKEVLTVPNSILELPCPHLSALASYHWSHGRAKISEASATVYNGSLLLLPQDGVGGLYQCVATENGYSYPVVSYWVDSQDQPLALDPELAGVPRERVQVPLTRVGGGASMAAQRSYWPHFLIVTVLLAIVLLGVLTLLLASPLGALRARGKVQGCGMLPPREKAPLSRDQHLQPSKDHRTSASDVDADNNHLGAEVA
- Assay overview: Mirrorball direct binding, dilution series on expi293 cells transiently transfected with mouse SEMA4A, anti-human Alexa Fluor 647
Test readout: binding result

• C0120914 human Alya IgG1 (antibody, V domains shown, Fully human, phage display derived; human IgG1 Alya constant (239iCys, S442C, EU); unconjugated) VH: QVQLQESGPGLVKPSETLSLTCTVSGGSVSSGRYDWSWIRQPPGKGLEWIGHIYYTGITDYNPSLRSRVTISADKPKNQFSLKLNSVTAADTAVYYCARGPFFDPWGQGTMVTVSS VL: QSVLTQPPSVSVAPGQTASLTCGANNIGSKSVQWYQQKPGQAPVLVVYDGSDRPSGIPDRFSGSSSENTATLTISRVEAGDEADYYCQLWDSVTDRPVFGGGTKVTVL = binds
• 5Hg2-5Lg6 human Alya IgG1 (antibody, V domains shown, Humanised 5E3; human IgG1 Alya constant (239iCys, S442C, EU), lambda light chain; purified, unconjugated) VH: QVQLVQSGAEVKKPGASVKVSCKASGYTFTDYWMHWVRQAPGQRLEWMGAIDTSDSYTSYNQKFKGRVTITRDTSASTAYMELSSLRSEDTAVYYCARDYGNFYYYAMDYWGQGTLVTVSS VL: SYELTQPSSVSVSPGQTARITCRSSTGAVTTSNYANWFQQKPGQAPVLVIYGTNNRAPGIPERFSGSSSGTTVTLTISGAQVEDEADYYCALWYSNHWVFGGGTKLTVL = binds
• 5Hg4-5Lg1 human Alya IgG1 (antibody, V domains shown, Humanised 5E3; human IgG1 Alya constant (239iCys, S442C, EU), lambda light chain; purified, unconjugated) VH: QVQLVQSGSELKKPGASVKVSCKASGYTFTDYWMHWVRQAPGQGLEWMGAIDTSDSYTSYNQKFKGRFVFSLDTSVSTAYLQICSLKAEDTAVYYCARDYGNFYYYAMDYWGQGTLVTVSS VL: QAVVTQEPSLTVSPGGTVTLTCRSSTGAVTTSNYANWFQQKPGQAPRTLIYGTNNRAPWTPARFSGSLLGGKAALTLSGAQPEDEAEYYCALWYSNHWVFGGGTKLTVL = binds

The reported numbers originate from patent US20250152729A1.
